Tested on: HCC 2998
test-method-notes: Growth inhibition of human HCC2998 cells at 10^-5 M incubated for 48 hrs by sulforhodamine B assay
Format: functional
measurement-context: HCC 2998, 48 h, read-out: GI
Note to self: values exactly at -10% are 1.0. So inhibition of growth at 10 µM at or above -10% is 1.0, below is 0.0.

{"columns": ["compound", "answer-label"],
 "data": [
  ["O=C1Nc2c(sc3ccc(Cl)cc23)C(c2ccccc2O)N1 (stereo not given)", 0.0],
  ["O=C1SC2=Nc3c(sc4ccc(Cl)cc34)C(c3ccc4ccccc4c3)N2C1=O (stereo not given)", 0.0],
  ["N=C1Nc2c(sc3ccc(Cl)cc23)C(c2cccc(Br)c2)N1 (stereo not given)", 0.0],
  ["O=C1/C(=C\\c2cccc(Br)c2)Sc2ccc(Cl)cc21", 1.0],
  ["O=[N+]([O-])c1cccc(C2NC(N3CCOCC3)=Nc3c2sc2ccc(Cl)cc32)c1 (stereo not given)", 1.0],
  ["N=C1Nc2c(sc3ccc(Cl)cc23)C(c2ccc3ccccc3c2)N1 (stereo not given)", 1.0],
  ["S=C1Nc2c(sc3ccc(Cl)cc23)C(c2ccc3ccccc3c2)N1 (stereo not given)", 0.0],
  ["S=C1Nc2c(sc3ccc(Cl)cc23)C(c2cccc(Br)c2)N1 (stereo not given)", 0.0],
  ["O=C1CC(=O)N(C2=Nc3c(sc4ccc(Cl)cc34)C(c3cccc([N+](=O)[O-])c3)N2)N1 (stereo not given)", 1.0],
  ["O=[N+]([O-])c1cccc(C2c3sc4ccc(Cl)cc4c3N=C3NN=CN32)c1 (stereo not given)", 1.0]
]}

---

Test system: LOX IMVI
test-method-notes: Growth inhibition of human LOXIMVI cells at 10^-5 M incubated for 48 hrs by sulforhodamine B assay
Format: functional
measurement-context: read-out: GI
Attribute: inhibition of growth at 10 µM

{"columns": ["compound", "inhibition of growth at 10 µM / %"],
 "data": [
  ["S=C1Nc2c(sc3ccc(Cl)cc23)C(c2cccc(Br)c2)N1 (configuration not stated)", -0.61],
  ["O=C1/C(=C\\c2ccccc2O)Sc2ccc(Cl)cc21", 9.63],
  ["O=C1Nc2c(sc3ccc(Cl)cc23)C(c2cccc(Br)c2)N1 (configuration not stated)", -3.37],
  ["O=C1CSC2=Nc3c(sc4ccc(Cl)cc34)C(c3ccc4ccccc4c3)N12 (configuration not stated)", 9.15],
  ["Cc1cc(C)n(C2=Nc3c(sc4ccc(Cl)cc34)C(c3cccc([N+](=O)[O-])c3)N2)n1 (configuration not stated)", 0.51],
  ["Oc1ccccc1C1NC(=S)Nc2c1sc1ccc(Cl)cc21 (configuration not stated)", 6.44],
  ["O=[N+]([O-])c1cccc(C2c3sc4ccc(Cl)cc4c3N=C3NN=C(c4cccc(F)c4)N32)c1 (configuration not stated)", 0.5]
]}

---

Tested on: UACC-257
test-method-notes: Growth inhibition of human UACC257 cells at 10^-5 M incubated for 48 hrs by sulforhodamine B assay
Type: functional
measurement-context: UACC-257, 48 h, read-out: GI
Attribute: inhibition of growth at 10 µM

{"columns": ["molecule", "study-target", "inhibition of growth at 10 µM / %"],
 "data": [
  ["O=[N+]([O-])c1cccc(C2c3sc4ccc(Cl)cc4c3N=C3NN=CN32)c1 (configuration not stated)", "UACC-257", -3.45],
  ["Cc1cc(C)n(C2=Nc3c(sc4ccc(Cl)cc34)C(c3cccc([N+](=O)[O-])c3)N2)n1 (configuration not stated)", "UACC-257", -4.2],
  ["O=C1Nc2c(sc3ccc(Cl)cc23)C(c2cccc(Br)c2)N1 (configuration not stated)", "UACC-257", -7.95],
  ["O=C1CC(=O)N(C2=Nc3c(sc4ccc(Cl)cc34)C(c3cccc([N+](=O)[O-])c3)N2)N1 (configuration not stated)", "UACC-257", -8.39],
  ["O=C1Nc2c(sc3ccc(Cl)cc23)C(c2ccccc2O)N1 (configuration not stated)", "UACC-257", 9.85],
  ["O=C1Nc2c(sc3ccc(Cl)cc23)C(c2cccc([N+](=O)[O-])c2)N1 (configuration not stated)", "UACC-257", 0.85],
  ["O=[N+]([O-])c1cccc(C2c3sc4ccc(Cl)cc4c3N=C3NN=C(c4cccc(F)c4)N32)c1 (configuration not stated)", "UACC-257", -6.09]
]}

---

Attribute: inhibition of growth at 10 µM
System: SN12C
test-method-notes: Growth inhibition of human SN12C cells at 10^-5 M incubated for 48 hrs by sulforhodamine B assay
Type: functional
measurement-context: read-out: GI

{"columns": ["molecule", "inhibition of growth at 10 µM, %"],
 "data": [
  ["Cc1cc(C)n(C2=Nc3c(sc4ccc(Cl)cc34)C(c3cccc([N+](=O)[O-])c3)N2)n1 (centres undefined)", 5.84],
  ["O=C1Nc2c(sc3ccc(Cl)cc23)C(c2ccc3ccccc3c2)N1 (centres undefined)", 10.9],
  ["O=C1/C(=C\\c2ccccc2O)Sc2ccc(Cl)cc21", 5.15],
  ["O=C1Nc2c(sc3ccc(Cl)cc23)C(c2ccccc2O)N1 (centres undefined)", 7.73],
  ["O=C1CSC2=Nc3c(sc4ccc(Cl)cc34)C(c3cccc([N+](=O)[O-])c3)N12 (centres undefined)", 2.31],
  ["O=[N+]([O-])c1cccc(C2c3sc4ccc(Cl)cc4c3N=C3NN=CN32)c1 (centres undefined)", -37.5],
  ["N=C1Nc2c(sc3ccc(Cl)cc23)C(c2cccc(Br)c2)N1 (centres undefined)", 6.52],
  ["S=C1Nc2c(sc3ccc(Cl)cc23)C(c2ccc3ccccc3c2)N1 (centres undefined)", 9.45],
  ["O=C1/C(=C\\c2cccc(Br)c2)Sc2ccc(Cl)cc21", -0.02],
  ["O=C1/C(=C\\c2ccc3ccccc3c2)Sc2ccc(Cl)cc21", 6.38],
  ["O=[N+]([O-])c1cccc(C2c3sc4ccc(Cl)cc4c3N=C3NN=C(c4cccc(F)c4)N32)c1 (centres undefined)", 3.42],
  ["N=C1Nc2c(sc3ccc(Cl)cc23)C(c2ccccc2O)N1 (centres undefined)", -22.4],
  ["O=[N+]([O-])c1cccc(C2c3sc4ccc(Cl)cc4c3N=C3NN=NN32)c1 (centres undefined)", 9.98],
  ["O=C1SC2=Nc3c(sc4ccc(Cl)cc34)C(c3ccc4ccccc4c3)N2C1=O (centres undefined)", 13.2]
]}

---

Tested on: NCI-H460
test-method-notes: Growth inhibition of human NCI-H460 cells at 10^-5 M incubated for 48 hrs by sulforhodamine B assay
Format: functional
measurement-context: NCI-H460, 48 h, read-out: GI
Attribute: inhibition of growth at 10 µM

{"columns": ["compound", "inhibition of growth at 10 µM, %"],
 "data": [
  ["CCOC(=O)CSC1=Nc2c(sc3ccc(Cl)cc23)C(c2cccc([N+](=O)[O-])c2)N1 (stereo not given)", -0.74],
  ["O=[N+]([O-])c1cccc(C2NC(=S)Nc3c2sc2ccc(Cl)cc32)c1 (stereo not given)", 11.4],
  ["O=[N+]([O-])c1cccc(C2c3sc4ccc(Cl)cc4c3N=C3NN=C(c4cccc(F)c4)N32)c1 (stereo not given)", 13.4],
  ["NNC1=Nc2c(sc3ccc(Cl)cc23)C(c2cccc([N+](=O)[O-])c2)N1 (stereo not given)", 1.16],
  ["S=C1Nc2c(sc3ccc(Cl)cc23)C(c2ccc3ccccc3c2)N1 (stereo not given)", 6.2]
]}

---

Attribute: inhibition of growth at 10 µM
Tested on: HCT-116
test-method-notes: Growth inhibition of human HCT116 cells at 10^-5 M incubated for 48 hrs by sulforhodamine B assay
Type: functional
measurement-context: HCT-116, 48 h, read-out: GI

{"columns": ["molecule", "inhibition of growth at 10 µM, %"],
 "data": [
  ["O=[N+]([O-])c1cccc(C2c3sc4ccc(Cl)cc4c3N=C3NN=NN32)c1 (stereo not given)", -7.64],
  ["O=C1CSC2=Nc3c(sc4ccc(Cl)cc34)C(c3cccc([N+](=O)[O-])c3)N12 (stereo not given)", -0.32],
  ["O=[N+]([O-])c1cccc(C2NC(=S)Nc3c2sc2ccc(Cl)cc32)c1 (stereo not given)", 13.4],
  ["O=C1Nc2c(sc3ccc(Cl)cc23)C(c2cccc([N+](=O)[O-])c2)N1 (stereo not given)", 5.37],
  ["Cc1cc(C)n(C2=Nc3c(sc4ccc(Cl)cc34)C(c3cccc([N+](=O)[O-])c3)N2)n1 (stereo not given)", 5.98]
]}

---

Tested on: NCI-H460
test-method-notes: Growth inhibition of human NCI-H460 cells at 10^-5 M incubated for 48 hrs by sulforhodamine B assay
Assay type: functional
measurement-context: NCI-H460, 48 h, read-out: GI
Attribute: inhibition of growth at 10 µM
measured-endpoint: inhibition of growth at 10 µM (%)

{"columns": ["molecule", "study-target", "result-unit", "value-measured"],
 "data": [
  ["O=C1Nc2c(sc3ccc(Cl)cc23)C(c2cccc(Br)c2)N1 (centres undefined)", "NCI-H460", "%", -0.32],
  ["N#Cc1cnn(C2=Nc3c(sc4ccc(Cl)cc34)C(c3cccc([N+](=O)[O-])c3)N2)c1N (centres undefined)", "NCI-H460", "%", -1.07],
  ["O=C1Nc2c(sc3ccc(Cl)cc23)C(c2ccc3ccccc3c2)N1 (centres undefined)", "NCI-H460", "%", 2.77],
  ["S=C1Nc2c(sc3ccc(Cl)cc23)C(c2cccc(Br)c2)N1 (centres undefined)", "NCI-H460", "%", 7.39]
]}

Cited source: ChEMBL document CHEMBL4414672
